# tested_system: full length active recombinant SYK enzyme (Homo sapiens, UniProt P43405)
# Construct: full length active recombinant SYK enzyme (Millipore, Calif.)
# test_protocol: Inhibition of Syk tyrosine phosphorylation activity (LANCE TR-FRET kinase assay)
# measurement_context: 1 nM SYK, 550 nM substrate, 100 μM ATP, 1 hour room temperature
pIC50: −log10 of the molar value.
Provide the reported pIC50 of each item.

Consider the following illustrative entries.
- compound: "Cc1ccc(Nc2ncc(C(N)=O)c(N[C@H]3CC[C@H](N)CC3)n2)cc1"
  tested_system: "full length active recombinant SYK enzyme (Homo sapiens, UniProt P43405)"
  pIC50: "6.00 to 7.00"
- compound: "Cn1ccc2c(Nc3nc(NCC4CCCC4)ncc3C(N)=O)cccc21"
  tested_system: "full length active recombinant SYK enzyme (Homo sapiens, UniProt P43405)"
  pIC50: "6.00 to 7.00"
- compound: "NC(=O)c1cnc(N[C@@H]2CCCC(F)(F)[C@@H]2N)nc1Nc1cnc2ccccc2c1"
  tested_system: "full length active recombinant SYK enzyme (Homo sapiens, UniProt P43405)"
  pIC50: "6.00 to 7.00"
- compound: "Cc1cccc(Nc2nc(NC[C@@H](N)CC(F)F)ncc2C(N)=O)c1"
  tested_system: "full length active recombinant SYK enzyme (Homo sapiens, UniProt P43405)"
  pIC50: "7.00 to 8.00"
- compound: "CC[C@@H](Nc1ncc(C(N)=O)c(Nc2ccc3cccnc3c2)n1)C(N)=O"
  tested_system: "full length active recombinant SYK enzyme (Homo sapiens, UniProt P43405)"
  pIC50: "7.00 to 8.00"

Would you mind giving pIC50 for every compound in the list below?
1. C[C@@H](Nc1ncc(C(N)=O)c(Nc2cccc(-n3cccn3)c2)n1)C1(N)CC1
2. CC(C)[C@@H](Nc1ncc(C(N)=O)c(Nc2ccc3c(ccc[n+]3[O-])c2)n1)C(N)=O

**A:**
["8.00 to 9.00", "6.00 to 7.00"]

// each listed compound needs a value for pIC50
1. NC(=O)c1cnc(N[C@@H]2CCCC[C@@H]2n2ccnn2)nc1Nc1cccc(-n2nccn2)c1
2. N#Cc1cccc(Nc2nc(N[C@@H]3CCOC[C@@H]3N)ncc2C(N)=O)c1
3. Cc1cccc(Nc2nc(N[C@@H]3CC[C@@H](C(=O)N(C)C)C[C@@H]3N)ncc2C(N)=O)c1 (racemic)
4. NC(=O)c1cnc(N[C@@H]2CCCC[C@@H]2N)nc1Nc1cccc(Oc2nc3ccccc3s2)c1
5. NC(=O)c1cnc(N[C@@H]2CCCC(F)(F)[C@@H]2N)nc1Nc1cccc(Cl)c1
6. NC(=O)c1cnc(NC[C@@H](N)CC(F)F)nc1Nc1cccc2c1CCN2CC(F)(F)F
7. CC(C)[C@@H](Nc1ncc(C(N)=O)c(Nc2cccc(-c3ncccn3)c2)n1)C1(N)CC1

**A:**
1. 6.00 to 7.00
2. 7.00 to 8.00
3. 8.00 to 9.00
4. 7.00 to 8.00
5. 7.00 to 8.00
6. 7.00 to 8.00
7. 8.00 to 9.00

State the recorded pIC50 for every item in the following list.
1. NC(=O)c1cnc(N[C@H](CC2CC2)C(N)=O)nc1Nc1cnc2ccccc2c1
2. Cc1cccc(Nc2nc(N[C@H](C)C3(N)CC3)ncc2C(N)=O)c1

**A:**
1. 7.00 to 8.00
2. 8.00 to 9.00
